- System: T1, human CD86-murine Ig fusion protein (human)
- T1 construct: Bought (Ancell #509-820); also called hCD86-mIg
- T1 chain: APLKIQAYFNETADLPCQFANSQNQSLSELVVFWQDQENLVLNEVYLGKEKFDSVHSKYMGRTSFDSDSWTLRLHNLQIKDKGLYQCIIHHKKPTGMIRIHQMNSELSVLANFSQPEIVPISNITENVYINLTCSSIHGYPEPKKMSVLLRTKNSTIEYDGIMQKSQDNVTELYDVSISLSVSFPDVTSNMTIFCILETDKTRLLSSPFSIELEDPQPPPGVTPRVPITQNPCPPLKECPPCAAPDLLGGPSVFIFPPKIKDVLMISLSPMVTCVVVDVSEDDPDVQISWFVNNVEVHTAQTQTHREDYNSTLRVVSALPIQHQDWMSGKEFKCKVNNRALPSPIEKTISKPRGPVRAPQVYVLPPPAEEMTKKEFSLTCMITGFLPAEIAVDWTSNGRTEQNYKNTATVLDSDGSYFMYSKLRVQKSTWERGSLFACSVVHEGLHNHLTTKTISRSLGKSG
- Test method notes: SPR Biacore, hCD86-mIg captured
Reported property: Binding Avidity (Relative to Orencia)

Give the measured Binding Avidity (Relative to Orencia) for D3-15-IgG2 (Fc fusion) MHVAQPAVVLASSRGIASFVCEYESPGKANEIRVTVLRQADSQVTEVCAMTYMKGDELTFLDDPSCTGTFSGNQVNLTIQGLRAMDTGLYICKVELMYPPPYYLGFGNGTQIYVIDPEPCPDSDERKCCVECPPCPAPPVAGPSVFLFPPKPKDTLMISRTPEVTCVVVDVSHEDPEVQFNWYVDGVEVHNAKTKPREEQFNSTFRVVSVLTVVHQDWLNGKEYKCKVSNKGLPAPIEKTISKTKGQPREPQVYTLPPSREEMTKNQVSLTCLVKGFYPSDIAVEWESNGQPENNYKTTPPMLDSDGSFFLYSKLTVDKSRWQQGNVFSCSVMHEALHNHYTQKSLSLSPG
> 40 fold

Data credit: patent US20110177071A1
